Tested on: human salivary sediment
test protocol: pH response of salivary sediment incubated with individual amino acids, with or without 28 mM urea
Type: cell-based
study conditions: 9 mM amino acid + 28 mM urea, 4 hours, 37° C.
Would you kindly list pH of salivary sediment for each of these molecules?
# print the numeric value only

For the molecule shown here, "NC(=O)CC[C@H](N)C(=O)O" , give the reported pH of salivary sediment.
9.00

For the molecule shown here, "N[C@@H](Cc1ccc(O)cc1)C(=O)O" , give the reported pH of salivary sediment.
8.87

For the molecule shown here, "CC[C@H](C)[C@H](N)C(=O)O" , give the reported pH of salivary sediment.
8.90

For the molecule shown here, "N[C@@H](Cc1c[nH]c2ccccc12)C(=O)O" , give the reported pH of salivary sediment.
9.00

For the molecule shown here, "CC(C)C[C@H](N)C(=O)O" , give the reported pH of salivary sediment.
8.85

For the molecule shown here, "O=C(O)[C@@H]1CCCN1" , give the reported pH of salivary sediment.
9.00

For the molecule shown here, "NC(=O)C[C@H](N)C(=O)O" , give the reported pH of salivary sediment.
8.90

For the molecule shown here, "CSCC[C@H](N)C(=O)O" , give the reported pH of salivary sediment.
9.00
